Tested on: MS2 coat protein
Assay: apparent KD of MS2 coat protein; higher = weaker reporter binding
Conditions: Eterna round: R107; input ligand: theophylline 20 uM
Below: a set of entries, each annotated with reported apparent KD of MS2 coat protein.

recordSequence | apparent KD of MS2 coat protein (nM)
AGAUUACAUGUUUUAAUACGGAAAACUGAUACCAGUGUAUCUAUUCACCCUUGGCAGCAGCAACAUGAGGAUCACCCAUGUAUUA [JR_SSTheophyA_Sub016] | 21.5
GGAUAUGGUGAAAGAGAGAAGAGAGAUGAUACCAGUAAGAGAAGAUGCCCUUGGCAGCAUAGAGACAUGAGGAUCACCCAUGUAA [solution] | 25.2
GGCACCGGGCGAAGGAGCGUGAAGACAUGAGGAUCACCCAUGUAGAGGCCCGGACAGGGUUCGCAGGUAGGUCGCGCGCGGUGCC [#1 Same State - Arginine B Attempt #8 (HarryS)] | 22.3

---

Tested on: K4 kissing-loop RNA reporter;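 also: bound reporter read as fluorescence of individual clusters on recovered sequencing chips by microscopy, with normalized cluster intensities fitted with a binding model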
Assay: apparent KD of K4 kissing-loop reporter; higher = weaker reporter binding
Settings: Eterna round: R107; input ligand: none
Classification field: Met = apparent KD of K4 kissing-loop reporter at or over 0.3 µM; Not met = apparent KD of K4 kissing-loop reporter under 0.3 µM.

recordSequence | label
AAGCAUUCUUCGGAAUGCAGACCCGCUGAGGAGGAUAUGACGAAAGUCAGAAGGCCUCAGUGAUGUUGAGGCCUCCUCAAUGGUC [Omei KL FMN A Exc A v1] | Not met
UGUAAGCGCGUAGAUACCAGCAGACGAGUGAUGUUCAAGAGAUUAAGGAAAAGAAAGUAAUGCCCUUGGCAGCUAAUCAUAAGCG [whbob_Ex_Theo_B_sa93] | Met
CUGAGCCUGACGUAAGUCAGGCUCUGCGAGCGAGGACCGGUACGGCCGCCACUCGGUGCAGUGAUGUUGCAUGGCCGCAAGGCCG [#2 Exclusion - Tryptophan A Attempt #19 (HarryS)] | Not met
ACCCAAGCCCAUCGCGCAGUGAUGUUGUCGCGAGGACCGGUACGGCCGCCACUCGAUAGCAGUGGCAACGUCAUCAUAAUCGAUU [theeternabot_exclusion_KL_Trp_A_50] | Met
GAUUUAGAGGCGGCCGCCACUAGUGAUGUUAGUGAUGUUUGAUACUGUAUAUAUCGGCGUGUAGAUAGGACCGGGCCUGAUGGAG [drrdmullin] | Not met
UAGUCAUACAGAGGAUAUCGUAUGAGUGAUGUUCAUACGACAUAAUCGAGUUGUAUCGAUGUUCGACGAGAAGGCUGUAUGACUA [FMN B Ex t1b] | Not met

---

Test system: MS2 coat protein
Experiment: apparent KD of MS2 coat protein; higher = weaker reporter binding
Conditions: Eterna round: R107; input ligand: theophylline 20 uM

recordSequence | apparent KD of MS2 coat protein, nM
GCCUAGCAUCGAAGGAGCGCUGGUGAAACUGACUAAUAUACAUGAGGAUCACCCAUGUGCUAGCAGGUAGGUCGCGAUGCUAGGC [SSAB NP+V+V2 #11] | 27.2
GGUCGCCUACAUGGGUAGGCGAUUUUGGAAGGAGCGAGCGAGAGCUCAGGUAGGUCGCCAGCACAUGAGGAUCACCCAUGUUUUU [SSArg-A #25 Weakened 1st state] | 20.9
ACGUAAUGCAGAAGGAGCGUCAACCUCUUACAUGAGGAUCACCCAUGUUACAUGGUUGUAUGACAGGUAGGUCGCUGAAGUACGA [JR_ExcArginiB_Sub001] | 50.5
CCAUAGGGUAAAUACAUAAUCAUAUCUGAAGGAGCGUGGAUAAACACAGGUAGGUCGCAGAAUCACAUGAGGAUCACCCAUGUCU [Same State Arginine A GF11] | 53.5
AAACGCCACGGAAGGAGCGACAUGAGGAUCACCCAUGUAGAUUUGGCGGAUGCACCCUCCUGUCAGGUAGGUCGCCGUGCGCUAA [XArg-B24] | 90.2
AAUUCAAUUUUCUUGAUGUAUUAUAUAUUUCGAGGACCGGUACGGCCGCCACUCGUUAAUUACAUGAGGAUCACCCAUGUUAGCU [JR_ExcTryptoA_Sub009] | 17.5
CAUACUUUAGUAUGUAAUGUGGACAGUGAUACCAGAUACGAAAGUAUCCCUUGGCAGCACAACAUGAGGAUCACCCAUGUAUUUU [Theophylline A 3] | 20
GGCAGUCAUAGGAGGGCAAAUAUACUCGAAGGAGCGUCAUAGUAGGCAGGUAGGUCGCGAGACAUGAGGAUCACCCAUGUAGAGA [wwzmullin] | 106
ACUGUCUUUGAUGAUAUGUAUGGGUCAUUGCGAGGACCGGUACGGCCGCCACUCGGUCCGCCACAUGAGGAUCACCCAUGUCUAU [theeternabot_exclusion_MS2_Trp_A_37] | 94.6

---

Tested on: MS2 coat protein
Assay: apparent KD of MS2 coat protein; higher = weaker reporter binding
Details: Eterna round: R107; input ligand: arginine 13.2 mM
Classification field: t = apparent KD of MS2 coat protein at or over 20 nM; f = apparent KD of MS2 coat protein under 20 nM.

recordSequence | label
UGGUAGGUAGGAAGGAGCGCAUACUUCACAUGAGGAUCACCCAUGUCGAGACGUGAGUCAGUGCAGGUAGGUCGCCUAGUUAUGA [Same State - Arginine B (Freestyle 23)] | t
AGCAGAUCCCAGCGAAAGCUGGGAUCUGCACGAGGACCGGUACGGCCGCCACUCGAGGACAUGAGGAUCACCCAUGUACCGGUCA [Glorfindel] | t
GAUGAUAUUGCAGAUACCAGACACAUGAGGAUCACCCAUGUCGCUGAGUUGCUGGAUCGUGUCCCUUGGCAGCUGCGAUAUCAUC [Belgium] | f
CACAUGAGGAUCACCCAUGUCUGAACUGAAGGAGCGCUAAACAAGGCAGGUAGGUCGCGGAAUCCCGGGUGCAUAUGCACCCGGG [9.aA] | t
GGCACCGGGCGAAGGAGCGUGAAGACAUGAGGAUCACCCAUGUAGAGGCCCGGACAGGGUUCGCAGGUAGGUCGCGCGCGGUGCC [#1 Same State - Arginine B Attempt #8 (HarryS)] | t
AAUUCAAUUUUCUUGAUGUAUUAUAUAUUUCGAGGACCGGUACGGCCGCCACUCGUUAAUUACAUGAGGAUCACCCAUGUUAGCU [JR_ExcTryptoA_Sub009] | f
CAAUAUAUAGCGGCCGCCACUUACUCAUGAGGUAACAACAUGAGGAUCACCCAUGUUUGAGGAUCAAGGACCGGGCUAUAUAUUG [AstrosSSTryB#6] | t
AUACCUAGUGAGUCGUGUUUCUUUUCAGAUACCAGACUUUUCGUUGUCCCUUGGCAGCUGUUUUACAUGAGGAUCACCCAUGUUG [JR_ExcTheophyA_Sub007] | f
GACCUUAUCUGAAGGAGCGAGGUAAAUAGGGAUGAGCAUACAUGAGGAUCACCCAUGUGGCCUCAGGUAGGUCGCAGAUGAGAUU [Exclusion Arginine B GF27] | t
CUCCGAGGCUAUACUAUCCGCCUCUGUGAUACCAGAAUACCUAUAUUCCCUUGGCAGCAUCACAUGAGGAUCACCCAUGUGCCAU [SSTheo A #13] | f
